Let's look at some pIC50 data for MAGL (Homo sapiens) that I collected from the literature.
Please treat pIC50 as minus the base-10 logarithm of the molar concentration.

Please supply the value of reported pIC50 for the item `O=C1N[C@H](CCC(=O)N2CC(c3ccc([C@H]4C[C@H](C(F)(F)F)C4)nc3)C2)CO1`
7.12

Please supply the value of reported pIC50 for the item `O=C(c1ccc(Oc2cccc(F)n2)cc1)N1CC(N2CCN(C(=O)c3nccs3)CC2)C1`
6.87

Please supply the value of reported pIC50 for the item `Cc1[nH]c(=O)ccc1-c1cccc(C(=O)N2CCN3C[C@@H](c4ccc(F)c(Cl)c4)OC[C@@H]3C2)c1Cl`
7.24

Please supply the value of reported pIC50 for the item `COC(C)(C)Cn1cc(-c2ccc(C(=O)N3CCN(c4nc5nc(Cl)ccc5o4)CC3)cc2)nn1`
7.51

Please supply the value of reported pIC50 for the item O=C1CO[C@H]2CCN(C(=O)N3CCC(c4ccc(OC(F)(F)F)cc4)C3)C[C@H]2N1 (stereo partly drawn)
6.56

Please supply the value of reported pIC50 for the item `Cc1cc(-c2cccc(C(F)(F)F)c2)ccc1C(=O)N1CC(N[C@H]2CCN(C(=O)c3ccccc3)C2)C1`
6.75

Please supply the value of reported pIC50 for the item `O=C1CO[C@H]2CCN(C(=O)N3CC(c4ccc(C(F)(F)F)cc4F)C3)C[C@H]2N1`
6.95

Please supply the value of reported pIC50 for the item `CC(C)(C)c1nnc(-c2ncc(C(=O)N3CCN(c4nc5nc(Cl)ccc5o4)CC3)cc2F)o1`
6.10

Please supply the value of reported pIC50 for the item `CC(C)(C)Cc1nnc(C23CC(C4CN(C(=O)CC[C@@H]5COC(=O)N5)C4)(C2)C3)o1`
7.62

Please supply the value of reported pIC50 for the item `O=C(c1cnc2ccn(-c3ccc(F)cc3)c2c1)N1CC(N2CCN(C(=O)c3nccs3)CC2)C1`
5.74

Please supply the value of reported pIC50 for the item C/C=C/c1cc([C@@H]2CN3CCN(C(=O)c4cccc(OC)c4Cl)C[C@H]3CO2)ccc1F (racemic)
6.75

Please supply the value of reported pIC50 for the item `O=C(c1ccc2nc(-c3ccccc3)sc2c1)N1CC(N2CCN(C(=O)c3nccs3)CC2)C1`
7.72

Please supply the value of reported pIC50 for the item `O=C(c1cccc(-c2ccccc2C(F)(F)F)c1)N1CC(N2CCN(C(=O)c3cscn3)CC2)C1`
7.06

====

Let's look at some IC50 data for MAGL (Homo sapiens, UniProt Q99685) that I collected from the literature.
Express the result in nM but write the number alone.

Please supply the value of reported IC50 for the item `O=C1N[C@H](CCC(=O)N2CC3(CCN(Cc4ccc(S(=O)(=O)C(F)(F)F)cc4)CC3)C2)CO1`
61

Please supply the value of reported IC50 for the item `O=C(c1ccc(OCc2ccc3ccccc3n2)cc1)N1CC(N2CCN(C(=O)c3nccs3)CC2)C1`
9

Please supply the value of reported IC50 for the item `Cc1cn(-c2ccc(F)cc2)c2ccc(C(=O)N3CC(N4CCN(C(=O)c5ccccc5)CC4)C3)cc12`
105

Please supply the value of reported IC50 for the item `COc1cccc(C(=O)N2CCN3C[C@@H](c4ccc(F)c(Cl)c4)OC[C@@H]3C2)c1Cl`
18.3

Please supply the value of reported IC50 for the item `O=C(c1ccc(Cc2ccc(C(F)(F)F)cc2)cc1)N1CC(N2CCN(C(=O)c3cscn3)CC2)C1`
8

Please supply the value of reported IC50 for the item `O=C(c1cc(F)cc(-c2cc[nH]c(=O)c2)c1Cl)N1CCN2C[C@@H](c3ccc(F)c(Cl)c3)OC[C@@H]2C1`
10.8

Please supply the value of reported IC50 for the item `O=C(CCc1cnn[nH]1)N1CC(c2ccc(C3(C(F)(F)F)CC3)cc2)C1`
339

Please supply the value of reported IC50 for the item COc1cccc(C(=O)N2CCN3C[C@@H](c4ccc(F)c(Cl)c4)OC[C@@H]3C2)c1Br (racemic)
14.6

Please supply the value of reported IC50 for the item `O=C(COc1ccc(C(=O)N2CC(N3CCN(C(=O)c4nccs4)CC3)C2)cc1)Nc1cccc(C(F)(F)F)c1`
19

Please supply the value of reported IC50 for the item `O=C(c1cccc(-c2ccc(=O)[nH]c2)c1Cl)N1CCN2C[C@@H](c3ccc(F)c(Cl)c3)OC[C@@H]2C1`
14.3

Please supply the value of reported IC50 for the item `O=C(c1nccs1)N1CCN(C2CN(C(=O)c3cn(-c4ccc(F)cc4)c4ccccc34)C2)CC1`
270

Please supply the value of reported IC50 for the item `Cc1c(C(=O)N2CC(N3CCN(C(=O)c4nccs4)CC3)C2)nn(-c2ccc(Cl)cc2Cl)c1-c1ccc(Cl)cc1`
13

Please supply the value of reported IC50 for the item `CS(=O)(=O)c1cccc(CC2CC3(C2)CN(C(=O)CC[C@@H]2COC(=O)N2)C3)c1`
46

Please supply the value of reported IC50 for the item `CC(C)(C)Cn1nnc(-c2c(F)cc(C(=O)N3CCN(c4nc5nc(Cl)ccc5o4)CC3)cc2F)n1`
10
